Target: PDGF-receptor beta enzyme comprising the tyrosine kinase domain (Homo sapiens)
Construct: from amino acid 545 to 1106 of GenBank Access NO: AAA36427
Sequence (P09619 545-1106): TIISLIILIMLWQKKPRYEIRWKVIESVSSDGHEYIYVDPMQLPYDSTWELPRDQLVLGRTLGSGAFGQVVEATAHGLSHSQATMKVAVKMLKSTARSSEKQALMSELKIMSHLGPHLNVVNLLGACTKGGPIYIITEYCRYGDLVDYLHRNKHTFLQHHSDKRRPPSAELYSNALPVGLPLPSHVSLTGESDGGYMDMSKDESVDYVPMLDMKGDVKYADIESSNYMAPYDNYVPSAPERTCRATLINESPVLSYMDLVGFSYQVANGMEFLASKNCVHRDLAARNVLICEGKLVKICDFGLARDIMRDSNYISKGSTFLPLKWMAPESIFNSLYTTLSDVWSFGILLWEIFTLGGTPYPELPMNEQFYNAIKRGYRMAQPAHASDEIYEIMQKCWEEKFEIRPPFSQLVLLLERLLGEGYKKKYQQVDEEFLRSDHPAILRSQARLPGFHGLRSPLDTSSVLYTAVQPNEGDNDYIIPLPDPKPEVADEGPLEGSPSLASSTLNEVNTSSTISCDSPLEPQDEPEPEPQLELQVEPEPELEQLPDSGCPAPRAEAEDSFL
Assay: Inhibition of PDGF-receptor kinase activity (cell-free, PLC1 peptide, 33P Flashplate)
Assay type: biochemical
Settings: PDGF-R kinase activity; compound at 10 uM; read-out: Percent Inhibition @ 10 uM
RESULT_TYPE: inhibition at 10 µM (%)

Would you please look over these solved cases?
[
  {
    "MOLECULE": "c1ccc(Nc2[nH]nc3c2Cc2ccccc2-3)cc1",
    "UOM": "%",
    "inhibition at 10 µM": 91
  },
  {
    "MOLECULE": "COc1ccc(OC)c(CNc2[nH]nc3c2Cc2ccc(C)cc2-3)c1",
    "UOM": "%",
    "inhibition at 10 µM": 66
  },
  {
    "MOLECULE": "COc1ccc(OC)c(CNc2[nH]nc3c2Cc2cc(F)ccc2-3)c1",
    "UOM": "%",
    "inhibition at 10 µM": 59
  },
  {
    "MOLECULE": "COc1cc2c(cc1OC)-c1n[nH]c(N3CCc4cc(Br)ccc43)c1C2",
    "UOM": "%",
    "inhibition at 10 µM": 39.5
  },
  {
    "MOLECULE": "FC(F)(F)Oc1ccc(Nc2[nH]nc3c2Cc2cc(Cl)ccc2-3)cc1",
    "UOM": "%",
    "inhibition at 10 µM": 87
  }
]

(A) CCC1c2cc(OC)c(OC)cc2-c2c1c(Nc1cccc(Br)c1)nn2C(=O)OCCOCCOCCO (stereo not shown)
(B) COC(=O)c1cccc(Nc2[nH]nc3c2Cc2c(OCCCN(C)C)cccc2-3)c1
(C) COC(=O)Cn1nc2c(c1Nc1cccc(F)c1)Cc1cc(OC)c(OC)cc1-2
Request: Arrange these 3 molecules in increasing order of inhibition at 10 µM. // rank by listing labels in the order requested
Result: C, A, B
(C: 40%, A: 68.5%, B: 108%)
